- Protocol: in vivo
- Reported conditions: Balb/c nu/nu nude, mouse, in vivo, ip
- Procedure: In vivo Antitumor Testing Paclitaxel was dissolved in a 50/50 mixture of ethanol and Cremophor® and stored at 4° C.; final dilution of paclitaxel was obtained immediately before drug administration with NaCl 0.9%. […] Tumor response was determined by measurement of tumors with a caliper twice a week, until the tumors reach a predetermined “target” size of 1 g. […] To estimate tumor cell kill, the tumor volume doubling time (TVDT) was first calculated with the Formula: […]
Observation type: MTD at 8 days (mg/kg)

| Entry smiles | Test result |
| --- | --- |
| CC(C)(C)c1cnc(CSc2cnc(NC(=O)C3CCNCC3)s2)o1 | 36 |

---

- Protocol: Colo205 xenograft in nude mice
- Reported conditions: Balb/c nu/nu nude, mouse, in vivo, iv

| Molecule | MTD / mg/kg |
| --- | --- |
| CC(=O)O[C@H]1C(=O)[C@@]2(C)[C@H]([C@H](OC(=O)c3ccccc3)[C@]3(O)C[C@H](OC(=O)[C@H](O)[C@@H](NC(=O)c4ccccc4)c4ccccc4)C(C)=C1C3(C)C)[C@]1(OC(C)=O)CO[C@@H]1C[C@@H]2O [Paclitaxel, paclitaxel, reference compound] | 36 |
